Assign EC50 to each entry below.
measured.on: BTK in Ramos human Burkitt lymphoma cells (Homo sapiens)
Construct: Compounds of this invention were assayed in Ramos human Burkitt lymphoma cells; endogenous in cells
Sequence (Q06187 whole entry): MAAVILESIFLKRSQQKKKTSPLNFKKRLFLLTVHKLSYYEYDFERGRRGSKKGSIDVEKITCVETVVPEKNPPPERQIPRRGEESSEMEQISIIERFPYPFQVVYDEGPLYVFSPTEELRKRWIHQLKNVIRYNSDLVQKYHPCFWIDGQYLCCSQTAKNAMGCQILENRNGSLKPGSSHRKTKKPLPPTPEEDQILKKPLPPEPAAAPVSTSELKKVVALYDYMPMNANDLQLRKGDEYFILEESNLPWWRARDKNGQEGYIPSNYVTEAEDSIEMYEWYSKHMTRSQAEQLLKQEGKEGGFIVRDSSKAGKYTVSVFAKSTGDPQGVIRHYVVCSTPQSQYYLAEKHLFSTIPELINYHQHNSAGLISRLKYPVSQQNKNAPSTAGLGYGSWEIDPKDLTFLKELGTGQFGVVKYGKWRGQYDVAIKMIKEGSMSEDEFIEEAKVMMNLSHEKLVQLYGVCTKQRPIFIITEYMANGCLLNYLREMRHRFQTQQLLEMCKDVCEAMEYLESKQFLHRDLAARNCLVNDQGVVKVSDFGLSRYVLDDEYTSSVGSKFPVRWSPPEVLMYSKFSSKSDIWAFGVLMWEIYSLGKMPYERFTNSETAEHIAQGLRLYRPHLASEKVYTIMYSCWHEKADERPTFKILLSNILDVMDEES
experimental.details: BTK Ramos cellular assay (BTK occupancy)
study.conditions: concentration producing 50% occupancy of BTK, 1 hour incubation with compound

>>> print(df.to_string())
                               input_smiles           val
0  C=CC(=O)N1CCC[C@@H](Nc2nc(Nc3ccc4c(c3)CN(CCF)C4)ncc2F)C1  10 to 100 nM

Could you report EC50 for every entry in the following list?
1. C=CC(=O)N1CCC[C@@H](Nc2nc(Nc3ccc4c(c3)CCCN(CC3COC3)C4)ncc2F)C1
2. C=CC(=O)N1CCC[C@@H](Nc2nc(Nc3ccc4c(c3)CN(C(C)C)C4)ncc2F)C1
3. C=CC(=O)N1CCC[C@@H](Nc2nc(Nc3ccc4c(c3)CCN(C)C4)ncc2F)C1

*A*
["10 to 100 nM", "< 10 nM", "10 to 100 nM"]

Could you report EC50 for every entry in the following list?
1. C=CC(=O)N1CCC[C@@H](Nc2nc(Nc3ccc4c(c3)CN(CC3CCN(C(C)=O)CC3)C4)ncc2F)C1
2. C=CC(=O)N1CCC[C@@H](Nc2nc(Nc3ccc4c(c3)CN(C)C4)ncc2C(F)(F)F)C1

*A*
["10 to 100 nM", "< 10 nM"]

*Q* Any idea what its EC50 is? The compound is C#CCN1Cc2ccc(Nc3ncc(F)c(N[C@@H]4CCCN(C(=O)C=C)C4)n3)cc2C1
*A* 10 to 100 nM
